This collection of values is drawn from the supplement of paper PMC10567573.

I'd be grateful if you could share measured protein stability index for these entries.
# method_notes: protein stability index of a GFP-peptide fusion (GPS, HEK-293T) (PSI 1-6); higher = more stable;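 further: 24-mer peptide tiles fused after GFP, lentivirally expressed, FACS-sorted into six equal bins by GFP/DsRed ratio, decoded by Illumina sequencing, PSI is the read-weighted mean bin number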
# settings: treatment: DMSO; c terminus: a fixed tail appended

Ask: Please report the measured protein stability index for GYVPSNYVERKNSLKKGSLVKNLK [NCK2]
Result: 3.96

Ask: Please report the measured protein stability index for PASRRRVVEEVRRRATSGGKWPQV [LPCAT4]
Result: 3.99

Ask: Please report the measured protein stability index for IEMFKSITHSTVGSKGEKDLGASS [EHMT1]
Result: 4.23

Ask: Please report the measured protein stability index for HHAALNGHVEMVNLLLAKGANINA [ANKRD44]
Result: 2.51

Ask: Please report the measured protein stability index for WLSYRLLKASEPGLFAVGEHTGEV [PCDHGA10]
Result: 2.35

Ask: Please report the measured protein stability index for GALYGITLIPTCKFYTWLWGVFYY [SCD]
Result: 2.39

Ask: Please report the measured protein stability index for QPVMQSDRTAIRSDTTHLVTLGGV [KLHL13]
Result: 3.88

Ask: Please report the measured protein stability index for PFPLGASAQNGLASSLPAEVHSLT [PLAGL1]
Result: 3.94

Ask: Please report the measured protein stability index for TDDQLLALLPSLSHCSQLTTLSFY [PRAME]
Result: 2.26

Ask: Please report the measured protein stability index for ESSPSHDRSRTVSASSTGDLPKAK [SRPK2]
Result: 5.16

Ask: Please report the measured protein stability index for NKNSTDVKGCSMYVALFPCNECAK [DCTD]
Result: 2.19

Ask: Please report the measured protein stability index for TLIDGGEHYWEVRYEPDSKAFGVG [FSD1]
Result: 2.65

Ask: Please report the measured protein stability index for LALGPILRLYKHNSQALLLHSSIL [MFSD9]
Result: 3.12

Ask: Please report the measured protein stability index for DPVELRRLNFQTPGMASHPPIPIL [PTPRD]
Result: 2.91

Ask: Please report the measured protein stability index for NLRKQLETLSGDRVRLDSELRNVQ [KRT71]
Result: 3.69

Ask: Please report the measured protein stability index for RWCCCCGERETRTPEELTILGETQ [CLCN6]
Result: 3.76

Ask: Please report the measured protein stability index for LEEDLKEVLRSEAGIELIIEDDIR [MYBL2]
Result: 4.66

Ask: Please report the measured protein stability index for MYQELMEMCHKPDVELLQDLGDIV [TRIM43]
Result: 2.57

Ask: Please report the measured protein stability index for SKFRRKDREDSPERCSDSDEEKKA [CLINT1]
Result: 5.43

Ask: Please report the measured protein stability index for EASQLRRLNIKKDDEFFHFVLLCF [TMEM40]
Result: 2.15

Ask: Please report the measured protein stability index for ARCTAGTLHNLSHHREGLLAIFKS [CTNNB1]
Result: 2.48

Ask: Please report the measured protein stability index for ENDPEWWKCKNARGQVGLVPKNYV [NCK2]
Result: 3.52

Ask: Please report the measured protein stability index for TECEPSELFQLQTYSLPPFLKAVL [CDS1]
Result: 2.65

Ask: Please report the measured protein stability index for IIKICDFGFAQILIPGDAYTDYVA [CDKL4]
Result: 2.6

Ask: Please report the measured protein stability index for EKEELLQLSIERGKVLQNKQAEIC [CCDC89]
Result: 4.44

Ask: Please report the measured protein stability index for FPDVPLGIFLFCVCVIAIGVVQAL [TMEM175]
Result: 2.63

Ask: Please report the measured protein stability index for TASYPSDGCGADGLRSRVKYGVKT [NOL4L]
Result: 3.84

Ask: Please report the measured protein stability index for SLLVLIEPVAAGSGIPEVKCYLNG [CLCN6]
Result: 1.99

Ask: Please report the measured protein stability index for SEEQVSKNLFGPPLESAFDHEDFT [FCHO1]
Result: 5.22

Ask: Please report the measured protein stability index for SAGSPPELQGLPELHEECEGNHPS [NET1]
Result: 5.46
